test system: NCI/ADR-RES ovarian; test: NCI-60 one-dose screen, 48 h (100 = growth as untreated, 0 = no growth, -100 = all killed); conditions: 10 µM
This is part of a sample that, as a whole, favours compounds with a hit. Of some 83,000 tested, about 20% had one in any assay. Activity calls are given as the source filed them. Rule for the calls: active = growth percent below 10; inactive = the rest.
growth listing for selected molecules.

Answered examples (10):
{"columns": ["MOLECULE", "growth"],
 "data": [
  ["COc1ccc(N(C)c2ncnc3occ(C)c23)cc1", "-16.2% (active)"],
  ["COc1ccc(/C=C2/SC(=S)NC2=O)c(OC)c1OC", "85.2% (inactive)"],
  ["COc1ccc(/C=C2\\CCCC3=C2NC(N)=NC3c2ccc(OC)cc2)cc1 (stereo unspecified)", "90.8% (inactive)"],
  ["CCN(CC)CC(=O)N(CC)c1ccc(C)c(Cl)c1", "102% (inactive)"],
  ["O=C1c2ccccc2-c2c1c1cccnc1c(=O)n2C[C@H](O)CO", "88.1% (inactive)"],
  ["CC1(C)N=C(N)N=C(N)N1c1cccc(C#N)c1", "75% (inactive)"],
  ["O=C(CCl)Oc1ccc(OC(=O)CCl)cc1", "79.4% (inactive)"],
  ["Nc1cc(-c2ccc(Cl)cc2)nn1-c1nc2ccccc2nc1Cc1ccccc1", "87.5% (inactive)"],
  ["CCn1c(CSc2nc3ccccc3c(=O)n2CCc2ccccc2)n[nH]c1=S", "73.7% (inactive)"],
  ["COc1ccc(-c2cc(-c3ccccc3)nc(SCCCC(=O)NO)n2)cc1", "-40.5% (active)"]
]}

// next entry
Input: Entry "N#Cc1cnn(C(=O)c2nn(-c3ccc(Cl)cc3)cc2O)c1N" : reported growth = ?
Output: 3.25% (active)

---

system: HCT-116 colon; experiment: NCI-60 one-dose screen, 48 h; conditions: 10 µM
This is part of a sample that, as a whole, favours compounds with a hit. Of some 83,000 tested, about 20% had one in any assay. The source made the active and inactive calls. The calls were made as follows: active = growth percent below 10; inactive = the rest.
Reply using exactly one outcome from label 1 for active, label 0 for inactive

{"columns": ["MOLECULE", "CLASS"],
 "data": [
  ["Cc1c2cnccc2c(C)c2c1c1cc(O)ccc1n2C(C)C", "label 1"],
  ["CC1C(=NC(=O)c2cnccn2)C(C)C(c2ccc(Cl)cc2)NC1c1ccncc1 (stereo unspecified)", "label 0"],
  ["Nc1nc(-c2ccc(Cl)cc2)cc(-c2cc3ccccc3oc2=O)n1", "label 0"]
]}

Input: What outcome does the record of this test show for CCCN1CN2C(=O)N3CN(CCC)CN4C(=S)N(C1)C2C34 (stereo unspecified) ?
Output: label 0

Input: Another molecule to check: "COc1ccc(/C(C#N)=C/c2ccccc2OC)cc1"
Output: label 0

Input: Another molecule to check: CC(=O)C1CCC2C3CC=C4CC(SC(=N)N)CCC4(C)C3CCC12C (stereo unspecified)
Output: label 1

Input: Another molecule to check: "CC(C)Cc1ccc([C@H](C)C(=O)O)cc1"
Output: label 0

Input: Another molecule to check: "CCOC(=O)C(C)(c1ccccc1)c1ccccc1"
Output: label 0

Input: Another molecule to check: "CCOC(=O)c1cc(C(=O)c2cc(OC)c(OC)c(OC)c2)n2c1ccc1c3cccnc3ccc12"
Output: label 0

Input: Another molecule to check: "CC(C)CCN(CCC(C)C)CC(=O)Nc1ccc(S(=O)(=O)c2ccc(NC(=O)CN(CCC(C)C)CCC(C)C)cc2)cc1"
Output: label 1

Input: Another molecule to check: "O=C1NC(=O)c2c(CCCSc3nc4ccccc4c(=O)n3CCc3ccccc3)cccc21"
Output: label 0

Input: Another molecule to check: "c1ccc(CCCCc2ccc3ccccc3n2)cc1"
Output: label 0

Input: Another molecule to check: "O=C1c2ccccc2C(=O)c2c1ccc1c(=O)n(-c3ccccc3C(F)(F)F)nnc21"
Output: label 1

Input: Another molecule to check: "COc1ccc(/C=C/c2nnc(/C=C/c3ccc(OC)c(OC)c3)o2)cc1OC"
Output: label 1

Input: Another molecule to check: "Cc1ccc(/C=C2/C(=O)N(C)c3ccc(S(=O)(=O)Nc4ccc(C(C)(C)C)cc4)cc32)s1"
Output: label 0

Input: Another molecule to check: "CN(C)CCOc1ccccc1NC1=C(Cl)C(=O)C(Nc2ccccc2OCCN(C)C)=C(Cl)C1=O"
Output: label 1

Input: Another molecule to check: "COc1cc(-c2nn(-c3ccc(NC(=O)NCCCNC(=O)c4ccccc4)cc3)cc2-c2ccncc2)ccc1Cl"
Output: label 1

Input: Another molecule to check: "CN(C)CCCSc1ccccc1NC1=C(Cl)C(=O)C(Nc2ccccc2SCCCN(C)C)=C(Cl)C1=O"
Output: label 1

Input: Another molecule to check: "CCN(CC)CCOc1ccc2c(c1O)C(=O)c1ccccc1C2=O"
Output: label 0

Input: Another molecule to check: "COc1ccc(-c2nn(-c3cccc(Cl)c3)cc2-c2nc(N)[nH]c(=O)c2C#N)cc1"
Output: label 0

Input: Another molecule to check: "COCCn1cc(-c2nc(-c3cccnc3)cs2)c2cc(F)ccc21"
Output: label 0
